Tested on: Escherichia coli
assayText: Antibacterial activity against Escherichia coli harboring TolC deletion mutant by microbroth dilution method
Type: functional
assayConditions: Escherichia coli; read-out: MIC

- molecule: "COc1ccc2cc1Oc1cc(ccc1OC)CCC(OC(=O)CCc1ccccc1)CCCC2 (stereo not drawn)"
  MIC: "> 100 µg/mL"
- molecule: "COc1ccc2cc1Oc1cc(ccc1OC)CCC(NC(=O)CCc1ccccc1)CCCC2 (stereo not drawn)"
  MIC: "> 100 µg/mL"
- molecule: "COc1ccc2cc1Oc1cc(ccc1OC)CCC(OS(=O)(=O)c1ccc(OC(F)(F)F)cc1)CCCC2 (stereo not drawn)"
  MIC: "> 100 µg/mL"
